Provide the reported Growth Rate of each item.
System: HEK-293T
Test: Incucyte cell viability with HEK293T; also: filed as whole numbers so only -1 and 0 and 1 occur
Type: toxicity, cell-based
Details: human, 12 h, 10 µM, compound concentration 10 uM, replicate number 1, timepoint 12 hours
Simply state the number, no unit and no words.

Incoming: Could you tell me which Growth Rate is on file for COc1cc2ncnc(Nc3ccc(F)c(Cl)c3)c2cc1NC(=O)/C=C/CN1CCCCC1 [DACOMITINIB ANHYDROUS] ?
Outgoing: 0

Incoming: `CN([C@@H](Cc1ccc(OS(=O)(=O)c2cccc3cnccc23)cc1)C(=O)N1CCN(c2ccccc2)CC1)S(=O)(=O)c1cccc2cnccc12` , same question.
Outgoing: 0

Incoming: CCCn1c(=O)c2[nH]c(-c3cnn(Cc4cccc(C(F)(F)F)c4)c3)nc2n(CC)c1=O [GS 6201] , same question.
Outgoing: 0

Incoming: `NS(=O)(=O)c1c(Cl)ccc(NC(=O)Nc2cccc(Cl)c2Cl)c1O` , same question.
Outgoing: 1

* * *

Provide the reported Population Apoptotic (%) of each item.
Tested on: HEK-293T
Assay: Multiplex assay against HEK293T
Assay type: toxicity, cell-based
Details: human, 24 h, 1 µM, compound concentration 1 uM, replicate 1
Numbers only; they are read as %.

Incoming: Could you tell me which Population Apoptotic (%) is on file for `CCc1cccc(CC)c1NC(=O)c1nn(C)c2c1CCc1cnc(Nc3ccc(N4CCN(C)CC4)cc3OC)nc1-2` ?
Outgoing: 39

Incoming: `O=C(Nc1cccnn1)N1CCC(=Cc2cccc(Oc3ccc(C(F)(F)F)cn3)c2)CC1` , same question.
Outgoing: 31

Incoming: `COc1cccc2cc(-c3nc([C@H]4CC[C@H](C(=O)O)CC4)n4ncnc(N)c34)[nH]c12` , same question.
Outgoing: 22

Incoming: `Cl.Oc1ccc2c3c1O[C@H]1c4[nH]c5c(c4C[C@@]4(O)[C@@H](C2)N(CC2CC2)CC[C@]314)C[C@@]1(O)[C@H]2Cc3ccc(O)c4c3[C@@]1(CCN2CC1CC1)[C@H]5O4` , same question.
Outgoing: 43

* * *

Tested on: HEK-293T
Assay: Multiplex assay against HEK293T
Format: toxicity, cell-based
Settings: human, 24 h, 1 µM, compound concentration 1 uM, replicate 2
Provide the reported Population Normal (%) of each item.
Numbers only; they are read as %.

Incoming: Could you tell me which Population Normal (%) is on file for `CCOc1cc(C(=O)N2CCC(N3CCN(C)CC3)CC2)ccc1Nc1ncc2c(n1)N(C1CCCC1)c1ccccc1C(=O)N2C` ?
Outgoing: 96

Incoming: CCn1cc(-c2ccnc3[nH]c(-c4cccc(CN(C)C)c4)cc23)c(-c2ccc(NC(=O)N(C)C)cc2)n1 [GSK-1070916] , same question.
Outgoing: 94

Incoming: `O=C(Nc1ccc(-c2ccnc(Nc3ccc(N4CCOCC4)cc3)n2)cc1)[C@@H]1CCCN1` , same question.
Outgoing: 96

Incoming: `Cl.O=C(c1ccc(Nc2nccc(-c3cc4ccccc4s3)n2)cc1)N1CCC(N2CCCC2)CC1` , same question.
Outgoing: 96

Incoming: Cc1cn(-c2cc(NC(=O)c3ccc(C)c(Nc4nccc(-c5cccnc5)n4)c3)cc(C(F)(F)F)c2)cn1 [NILOTINIB] , same question.
Outgoing: 95

Incoming: `CNC(=O)c1ccc(Nc2nc(OC3CCCC3)c3c(-c4ccc5nc(C)oc5c4)c[nH]c3n2)c(OC)c1` , same question.
Outgoing: 90

Incoming: `CCNc1cc(N[C@H]2CC[C@H](O)CC2)nc(Nc2ccc3c(ccn3Cc3ccccc3)c2)n1` , same question.
Outgoing: 97

Incoming: `O=C(Nc1cccnn1)N1CCC(=Cc2cccc(Oc3ccc(C(F)(F)F)cn3)c2)CC1` , same question.
Outgoing: 89

Incoming: `O=C(Nc1ccc(Cl)cc1)Nc1cccc(-c2cccc(N3CCCC3)n2)c1` , same question.
Outgoing: 96

Incoming: `CCc1cccc(CC)c1NC(=O)c1nn(C)c2c1CCc1cnc(Nc3ccc(N4CCN(C)CC4)cc3OC)nc1-2` , same question.
Outgoing: 87

Incoming: `Cl.O=c1c2cccn2c2ccccc2n1CCCN1CCC(c2ccc(Cl)cc2)CC1` , same question.
Outgoing: 95

Incoming: `CCc1cccc(CC)c1NC(=O)c1nn(C)c2c1CCc1cnc(Nc3ccc(C(=O)NC4CCN(C)CC4)cc3OC(F)(F)F)nc1-2` , same question.
Outgoing: 95

Incoming: Cn1nc(C(F)(F)F)cc1-c1cnc(N2CCc3cc(S(=O)(=O)Nc4c(F)cc(Cl)cc4F)cc(N4CCCC4=O)c32)nc1 [TP-020] , same question.
Outgoing: 98

Incoming: `CCCS(=O)(=O)c1nc(NC2CC2)cc(-c2ccc3c(ccn3C3CC(C)(C)NC(C)(C)C3)c2)n1` , same question.
Outgoing: 92

Incoming: `COc1ccc(S(=O)(=O)N(CCO)c2ccccc2CN(C)C/C=C/c2ccc(Cl)cc2)cc1.O=P(O)(O)O` , same question.
Outgoing: 89

Incoming: CN[C@@H]1C[C@H]2O[C@@](C)([C@@H]1OC)n1c3ccccc3c3c4c(c5c6ccccc6n2c5c31)C(=O)NC4 [STAUROSPORINE] , same question.
Outgoing: 85

Incoming: CN1C2CCC1CC(OC(c1ccc(F)cc1)c1ccc(F)cc1)C2.Cl (centres undefined) , same question.
Outgoing: 98

Incoming: COc1ccc(-c2ccc3c(N4CCOCC4)nc(N4C[C@@H](C)O[C@@H](C)C4)nc3n2)cc1CO [Ku-0063794] , same question.
Outgoing: 95

Incoming: O=C(Nc1ccc(-n2nc(-c3cccnc3)cc2C(F)(F)F)cn1)c1ccc(-c2ccccc2)c(F)c1 [BI 2049] , same question.
Outgoing: 95

Incoming: `Cc1ccc2nc(NCCN)c3ncc(C)n3c2c1.O=C(O)C(F)(F)F.O=C(O)C(F)(F)F` , same question.
Outgoing: 96

Incoming: O=C(Cc1ccc(-c2ccc(OCCN3CCOCC3)cc2)cn1)NCc1ccccc1 [TIRBANIBULIN] , same question.
Outgoing: 97

Incoming: `CNc1cc(Oc2cc(C(=O)Nc3cc(N4CCN(C)CC4)cc(C(F)(F)F)c3)ccc2C)ncn1` , same question.
Outgoing: 94

Incoming: `NC(=O)c1cccc(-c2cc(Nc3ccc(OC(F)(F)F)cc3)ncn2)c1` , same question.
Outgoing: 96

Incoming: O=C1NC(=O)C(c2cnc3ccccn23)=C1c1cn2c3c(cc(F)cc13)CN(C(=O)N1CCCCC1)CC2 [LY-2090314] , same question.
Outgoing: 93

Incoming: COc1cccc2cc(-c3nc([C@H]4CC[C@H](C(=O)O)CC4)n4ncnc(N)c34)[nH]c12 [OSI-027] , same question.
Outgoing: 91

Incoming: CN1CCC(=C2c3ccccc3CC(=O)c3sccc32)CC1.O=C(O)/C=C/C(=O)O [KETOTIFEN FUMARATE] , same question.
Outgoing: 97

Incoming: `O=C1N/C(=N/c2ccccc2F)S/C1=C\c1ccc(C(=O)O)cc1` , same question.
Outgoing: 94

Incoming: C=C1/C(=C\C=C2/CCC[C@]3(C)[C@@H]([C@H](C)/C=C/[C@H](C)C(C)C)CC[C@@H]23)C[C@@H](O)C[C@@H]1O [DOXERCALCIFEROL] , same question.
Outgoing: 96

Incoming: C=CCn1c(=O)c2cnc(Nc3ccc(N4CCN(C)CC4)cc3)nc2n1-c1cccc(C(C)(C)O)n1 [ADAVOSERTIB] , same question.
Outgoing: 95

* * *

Test system: U2OS
Assay: Multiplex assay against U2OS
Type: toxicity, cell-based
Conditions: human, 12 h, 10 µM, compound concentration 10 uM, replicate 1
Provide the reported Population Mitotic Cells (%) of each item.
Numbers only; they are read as %.

Incoming: API: value(readout=Population Mitotic Cells (%), system=U2OS) for record `Cl.Oc1ccc2c3c1O[C@H]1c4[nH]c5c(c4C[C@@]4(O)[C@@H](C2)N(CC2CC2)CC[C@]314)C[C@@]1(O)[C@H]2Cc3ccc(O)c4c3[C@@]1(CCN2CC1CC1)[C@H]5O4`
Outgoing: 42

Incoming: `CCCS(=O)(=O)Nc1ccc(F)c(C(=O)c2c[nH]c3ncc(Cl)cc23)c1F` , same question.
Outgoing: 50

Incoming: `O=C(Cc1ccc(-c2ccc(OCCN3CCOCC3)cc2)cn1)NCc1ccccc1` , same question.
Outgoing: 78

Incoming: `S=C(NCCCc1c[nH]cn1)NCCCN(Cc1ccc(Cl)c(Cl)c1)c1ccc(Br)cn1` , same question.
Outgoing: 11

* * *

Test system: HEK-293T
Experiment: Multiplex assay against HEK293T
Type: toxicity, cell-based
Settings: human, 12 h, 1 µM, compound concentration 1 uM, replicate 1
Provide the reported Population Apoptotic (%) of each item.
Numbers only; they are read as %.

Incoming: Could you tell me which Population Apoptotic (%) is on file for COc1ccc(-c2ccc3c(N4CCOCC4)nc(N4C[C@@H](C)O[C@@H](C)C4)nc3n2)cc1CO [Ku-0063794] ?
Outgoing: 17

Incoming: `CNc1cc(Oc2cc(C(=O)Nc3cc(N4CCN(C)CC4)cc(C(F)(F)F)c3)ccc2C)ncn1` , same question.
Outgoing: 79

Incoming: CN1CCC(=C2c3ccccc3CC(=O)c3sccc32)CC1.O=C(O)/C=C/C(=O)O [KETOTIFEN FUMARATE] , same question.
Outgoing: 46

Incoming: `Cc1cc(C)c(S(=O)(=O)N(Cc2ccc(-c3cccc(S(C)(=O)=O)c3)cc2)Cc2ccc(C(F)(F)F)o2)c(C)c1` , same question.
Outgoing: 47
